This collection of values is drawn from ChEMBL document CHEMBL6096672.

experiment: Ratio of unbound drug concentration in brain to plasma of rat; assay type: ADME; conditions: brain and plasma, read-out: K(p,uu,brain)

# Compound Smiles, Kp uu
records = [
    ("CCn1nc(-c2cnc(N)c(OC(F)F)c2)c2ccn([C@@H]3CCC(F)(F)C[C@@H]3OC)c(=O)c21", 0.6),
]

---

experiment: Clearance in IV-dosed dog; format: ADME, Canis lupus familiaris; conditions: in vivo
Recorded Endpoint: clearance (mL/min/kg)

# Compound Smiles, Recorded Endpoint, Readout Number
data = [
    ("CCn1nc(-c2cnc(N)c(OC(F)F)c2)c2ccn([C@@H]3CCC(F)(F)C[C@@H]3OC)c(=O)c21", "clearance", 24),
]
